# protocol description: Plasma pharmacokinetics after a single oral dose of rucaparib 600 mg in patients with advanced solid tumors, by hepatic function group
# condition parameters: human, plasma, po, 600 mg, AUC0–last, Median (min–max), NCI-ODWG normal hepatic function; single oral rucaparib 600 mg
reported property: AUC(0-t)

Ask: Recorded AUC(0-t) of `CNCc1ccc(-c2[nH]c3cc(F)cc4c3c2CCNC4=O)cc1` , please.
Reply: 17700 ng·h/mL

====

# protocol description: Plasma pharmacokinetics after a single oral dose of rucaparib 600 mg in patients with advanced solid tumors, by hepatic function group
# condition parameters: human, plasma, po, 600 mg, Vz/F, Median (min–max), NCI-ODWG moderate hepatic impairment; single oral rucaparib 600 mg
reported property: Vd/F
Write down the value, and be sure its unit follows.

Ask: Recorded Vd/F of `CNCc1ccc(-c2[nH]c3cc(F)cc4c3c2CCNC4=O)cc1` , please.
Reply: 2190 L

====

# protocol description: Plasma pharmacokinetics after a single oral dose of rucaparib 600 mg in patients with advanced solid tumors, by hepatic function group
# condition parameters: human, plasma, po, 600 mg, AUC0–last, Mean (SD), Child–Pugh severe hepatic impairment; single oral rucaparib 600 mg
reported property: AUC(0-t)
Write down the value, and be sure its unit follows.

Ask: Recorded AUC(0-t) of `CNCc1ccc(-c2[nH]c3cc(F)cc4c3c2CCNC4=O)cc1` , please.
Reply: 42200 ng·h/mL

====

# protocol description: Plasma pharmacokinetics after a single oral dose of rucaparib 600 mg in patients with advanced solid tumors, by hepatic function group
# condition parameters: human, plasma, po, 600 mg, Cmax, Mean (SD), Child–Pugh mild hepatic impairment; single oral rucaparib 600 mg
reported property: Cmax

Ask: Recorded Cmax of CNCc1ccc(-c2[nH]c3cc(F)cc4c3c2CCNC4=O)cc1 [rucaparib] , please.
Reply: 604 ng/mL

====

# protocol description: Plasma pharmacokinetics after a single oral dose of rucaparib 600 mg in patients with advanced solid tumors, by hepatic function group
# condition parameters: human, plasma, po, 600 mg, AUC0–last, GM, NCI-ODWG normal hepatic function; single oral rucaparib 600 mg
reported property: AUC(0-t)

Ask: Recorded AUC(0-t) of `CNCc1ccc(-c2[nH]c3cc(F)cc4c3c2CCNC4=O)cc1` , please.
Reply: 13.1 µg·h/mL

====

# protocol description: Plasma pharmacokinetics after a single oral dose of rucaparib 600 mg in patients with advanced solid tumors, by hepatic function group
# condition parameters: human, plasma, po, 600 mg, t1/2, Median (min–max), Child–Pugh mild hepatic impairment; single oral rucaparib 600 mg
reported property: half-life (h)
Number in h, nothing else.

Ask: Recorded half-life of `CNCc1ccc(-c2[nH]c3cc(F)cc4c3c2CCNC4=O)cc1` , please.
Reply: 26.6

====

# protocol description: Plasma pharmacokinetics after a single oral dose of rucaparib 600 mg in patients with advanced solid tumors, by hepatic function group
# condition parameters: human, plasma, po, 600 mg, Vz/F, Median (min–max), Child–Pugh severe hepatic impairment; single oral rucaparib 600 mg
reported property: Vd/F (L)
Number in L, nothing else.

Ask: Recorded Vd/F of CNCc1ccc(-c2[nH]c3cc(F)cc4c3c2CCNC4=O)cc1 [rucaparib] , please.
Reply: 2700

====

# protocol description: Plasma pharmacokinetics after a single oral dose of rucaparib 600 mg in patients with advanced solid tumors, by hepatic function group
# condition parameters: human, plasma, po, 600 mg, Vz/F, GM, Child–Pugh mild hepatic impairment; single oral rucaparib 600 mg
reported property: Vd/F
Write down the value, and be sure its unit follows.

Ask: Recorded Vd/F of `CNCc1ccc(-c2[nH]c3cc(F)cc4c3c2CCNC4=O)cc1` , please.
Reply: 2320 L

====

# protocol description: Urine pharmacokinetics (Ae0–24, CLR) after a single oral dose of rucaparib 600 mg in patients with advanced solid tumors
# Assay type: in vivo, human
# condition parameters: human, urine, po, 600 mg, NCI-ODWG normal hepatic function; single oral rucaparib 600 mg; read-out: CLR, Mean (SD)
reported property: CL renal (mL/min)
Number in mL/min, nothing else.

Ask: Recorded CL renal of `CNCc1ccc(-c2[nH]c3cc(F)cc4c3c2CCNC4=O)cc1` , please.
Reply: 53.5

====

# protocol description: Plasma pharmacokinetics after a single oral dose of rucaparib 600 mg in patients with advanced solid tumors, by hepatic function group
# condition parameters: human, plasma, po, 600 mg, t1/2, GM, NCI-ODWG normal hepatic function; single oral rucaparib 600 mg
reported property: half-life (h)
Number in h, nothing else.

Ask: Recorded half-life of `CNCc1ccc(-c2[nH]c3cc(F)cc4c3c2CCNC4=O)cc1` , please.
Reply: 26.1

====

# protocol description: Plasma pharmacokinetics after a single oral dose of rucaparib 600 mg in patients with advanced solid tumors, by hepatic function group
# condition parameters: human, plasma, po, 600 mg, Vz/F, GM, NCI-ODWG moderate hepatic impairment; single oral rucaparib 600 mg
reported property: Vd/F (L)
Number in L, nothing else.

Ask: Recorded Vd/F of CNCc1ccc(-c2[nH]c3cc(F)cc4c3c2CCNC4=O)cc1 [rucaparib] , please.
Reply: 1960

====

# protocol description: Plasma pharmacokinetics after a single oral dose of rucaparib 600 mg in patients with advanced solid tumors, by hepatic function group
# condition parameters: human, plasma, po, 600 mg, Vz/F, GM, Child–Pugh moderate hepatic impairment; single oral rucaparib 600 mg
reported property: Vd/F (L)
Number in L, nothing else.

Ask: Recorded Vd/F of `CNCc1ccc(-c2[nH]c3cc(F)cc4c3c2CCNC4=O)cc1` , please.
Reply: 1460

====

# protocol description: Plasma pharmacokinetics after a single oral dose of rucaparib 600 mg in patients with advanced solid tumors, by hepatic function group
# condition parameters: human, plasma, po, 600 mg, AUC0–last, Median (min–max), Child–Pugh moderate hepatic impairment; single oral rucaparib 600 mg
reported property: AUC(0-t) (ng·h/mL)
Number in ng·h/mL, nothing else.

Ask: Recorded AUC(0-t) of CNCc1ccc(-c2[nH]c3cc(F)cc4c3c2CCNC4=O)cc1 [rucaparib] , please.
Reply: 18400

====

# protocol description: Plasma pharmacokinetics after a single oral dose of rucaparib 600 mg in patients with advanced solid tumors, by hepatic function group
# condition parameters: human, plasma, po, 600 mg, AUC0–last, GM, Child–Pugh moderate hepatic impairment; single oral rucaparib 600 mg
reported property: AUC(0-t) (ng·h/mL)
Number in ng·h/mL, nothing else.

Ask: Recorded AUC(0-t) of `CNCc1ccc(-c2[nH]c3cc(F)cc4c3c2CCNC4=O)cc1` , please.
Reply: 22500

====

# protocol description: Urine pharmacokinetics (Ae0–24, CLR) after a single oral dose of rucaparib 600 mg in patients with advanced solid tumors
# Type: in vivo, human
# condition parameters: human, urine, po, 600 mg, Child–Pugh mild hepatic impairment; single oral rucaparib 600 mg; read-out: CLR, Mean (SD)
reported property: CL renal (mL/min)
Number in mL/min, nothing else.

Ask: Recorded CL renal of `CNCc1ccc(-c2[nH]c3cc(F)cc4c3c2CCNC4=O)cc1` , please.
Reply: 56.7

====

# protocol description: Urine pharmacokinetics (Ae0–24, CLR) after a single oral dose of rucaparib 600 mg in patients with advanced solid tumors
# Assay type: in vivo, human
# condition parameters: human, urine, po, 600 mg, NCI-ODWG normal hepatic function; single oral rucaparib 600 mg; read-out: CLR, GM
reported property: CL renal (mL/min)
Number in mL/min, nothing else.

Ask: Recorded CL renal of `CNCc1ccc(-c2[nH]c3cc(F)cc4c3c2CCNC4=O)cc1` , please.
Reply: 52.5

====

# protocol description: Plasma pharmacokinetics after a single oral dose of rucaparib 600 mg in patients with advanced solid tumors, by hepatic function group
# condition parameters: human, plasma, po, 600 mg, Vz/F, Mean (SD), NCI-ODWG normal hepatic function; single oral rucaparib 600 mg
reported property: Vd/F (L)
Number in L, nothing else.

Ask: Recorded Vd/F of `CNCc1ccc(-c2[nH]c3cc(F)cc4c3c2CCNC4=O)cc1` , please.
Reply: 2220

====

# protocol description: Plasma pharmacokinetics after a single oral dose of rucaparib 600 mg in patients with advanced solid tumors, by hepatic function group
# condition parameters: human, plasma, oral, 600 mg, AUC0–last, Geometric LS means, ANOVA; NCI-ODWG normal hepatic function (n = 8)
reported property: AUC(0-t) (ng·h/mL)
Number in ng·h/mL, nothing else.

Ask: Recorded AUC(0-t) of CNCc1ccc(-c2[nH]c3cc(F)cc4c3c2CCNC4=O)cc1 [rucaparib] , please.
Reply: 13100

====

# protocol description: Plasma pharmacokinetics after a single oral dose of rucaparib 600 mg in patients with advanced solid tumors, by hepatic function group
# condition parameters: human, plasma, po, 600 mg, Vz/F, Mean (SD), NCI-ODWG moderate hepatic impairment; single oral rucaparib 600 mg
reported property: Vd/F (L)
Number in L, nothing else.

Ask: Recorded Vd/F of CNCc1ccc(-c2[nH]c3cc(F)cc4c3c2CCNC4=O)cc1 [rucaparib] , please.
Reply: 2840

These entries and their values trace back to paper PMC8236452.
